The values you see were collected from patent US20230078764A1.

molecular target: human SCD1 (Homo sapiens); construct: expressed in transfected cells; host or cells: yeast strain with OLE1 deleted, plasmid-borne human SCD1 (selected in SD-Ura); assay: Growth inhibition of yeast strain expressing human SCD1 as sole desaturase (OLE1 deleted), OD600 readout; format: cell-based; conditions: yeast strain expressing human SCD1 as sole desaturase; growth (OD600) after 40 h at 30° C.; read-out: SCD1 IC50

{"columns": ["compound-string", "unit-info", "comparison-symbol", "IC50"],
 "data": [
  ["Cn1nc(C(=O)Nc2ccc(Cc3cc(F)cc(F)c3Cl)cn2)ccc1=O", "nM", "=", 2700],
  ["Cn1nc(C(=O)Nc2ccc(NCc3cccc(Cl)c3)cn2)ccc1=O", "nM", "=", 4000],
  ["O=C(Nc1ccc(Cc2ccc(F)c(Cl)c2)cn1)c1ccc(=O)n(C2CC2)n1", "nM", "=", 10],
  ["Cn1cc(C(=O)Nc2ccc(Cc3cc(F)cc(Cl)c3)cn2)n(C)c1=O", "nM", "=", 10],
  ["Cn1cc(C(=O)Nc2ccc(Cc3ccc(F)cc3)cn2)ccc1=O", "nM", "=", 200],
  ["Cn1cc(NC(=O)N2CCC(Cc3cccc(Cl)c3)CC2)ccc1=O", "nM", "=", 22800],
  ["N#Cc1cc(F)cc(Cc2ccc(NC(=O)c3ccnc(Cl)n3)nc2)c1", "nM", "=", 3600],
  ["N#Cc1cnc(C(=O)Nc2ccc(Cc3cc(F)cc(F)c3)cn2)cn1", "nM", "=", 490],
  ["O=C(Nc1ncc(Cc2cccc(F)c2)s1)C1=NN(CCO)C(=O)CC1", "nM", ">", 45000],
  ["N#Cc1cc(Cl)cc(Cc2ccc(NC(=O)c3ccnnc3)nc2)c1", "nM", "=", 220],
  ["Cn1cc(C(=O)Nc2ccc(CNc3cccc(Cl)c3)cn2)ccc1=O", "nM", "=", 1720],
  ["COCc1ccc(C(=O)Nc2ccc(Cc3cccc(Cl)c3)cn2)cn1", "nM", "=", 1260],
  ["O=C(Nc1ncc(Cc2cccc(F)c2)s1)c1ccc(=O)n(CCF)n1", "nM", "=", 7270],
  ["Cn1cc(C(=O)N[C@H]2CC[C@H](Cc3cccc(Cl)c3)CC2)ccc1=O", "nM", ">", 45000],
  ["COc1cc(Cl)cc(Cc2ccc(NC(=O)c3ccc(=O)n(C)n3)nc2)c1", "nM", "=", 210],
  ["CN1N=C(C(=O)Nc2ccc(COc3ccc(F)cc3F)cn2)CCC1=O", "nM", ">", 45000],
  ["Cn1nc(C(=O)Nc2ncc(Cc3cccc(C#N)c3)s2)ccc1=O", "nM", ">", 45000],
  ["CC(C)n1cc(C(=O)Nc2ccc(Oc3cccc(Cl)c3)cn2)ccc1=O", "nM", "=", 14700]
]}

###

molecular target: human SCD5 (Homo sapiens); construct: expressed in transfected cells; host or cells: yeast strain with OLE1 deleted, plasmid-borne human SCD5 (selected in SD-Ura); assay: Growth inhibition of yeast strain expressing human SCD5 as sole desaturase (OLE1 deleted), OD600 readout; assay type: cell-based; conditions: yeast strain expressing human SCD5 as sole desaturase; growth (OD600) after 40 h at 30° C.; read-out: SCD5 IC50
Sequence (Q86SK9 whole entry): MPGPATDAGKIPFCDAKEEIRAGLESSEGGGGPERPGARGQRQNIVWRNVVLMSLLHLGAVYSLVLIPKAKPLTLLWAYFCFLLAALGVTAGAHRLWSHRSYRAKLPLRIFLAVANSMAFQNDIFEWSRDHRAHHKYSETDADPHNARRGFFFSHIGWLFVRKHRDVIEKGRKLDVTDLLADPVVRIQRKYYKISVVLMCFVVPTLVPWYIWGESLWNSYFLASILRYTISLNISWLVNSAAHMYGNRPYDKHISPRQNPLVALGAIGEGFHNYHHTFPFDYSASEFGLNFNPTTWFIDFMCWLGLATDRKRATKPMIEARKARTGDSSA
value-kind: log10 of IC50 (log10 of the value in nM)

{"columns": ["compound-string", "system", "data-value"],
 "data": [
  ["O=C(Nc1ccc(Cc2ccc(F)cc2)cn1)c1ccc(CO)nc1", "human SCD5 (Homo sapiens)", 1.00],
  ["Cc1nccc(C(=O)Nc2ccc(Cc3ccc(F)c(Cl)c3)cn2)n1", "human SCD5 (Homo sapiens)", 1.00],
  ["Cn1nc(C(=O)Nc2ccc(Cc3cccc(Cl)c3)cn2)ccc1=O", "human SCD5 (Homo sapiens)", 2.11],
  ["Cn1cc(NC(=O)N2CCC(Cc3cccc(Cl)c3)CC2)ccc1=O", "human SCD5 (Homo sapiens)", 3.49],
  ["N#Cc1ccc(NC(=O)c2ccc(Cc3cc(F)cc(F)c3)cn2)cn1", "human SCD5 (Homo sapiens)", 1.00],
  ["Cn1cc(C(=O)Nc2ccc(Cc3cc(Cl)cc(C#N)c3)cn2)ccc1=O", "human SCD5 (Homo sapiens)", 1.34],
  ["Cn1nc(C(=O)Nc2ccc(Cc3cccc(C#N)c3F)cn2)ccc1=O", "human SCD5 (Homo sapiens)", 3.40],
  ["Cn1ccc(C(=O)Nc2ccc(Cc3cccc(Cl)c3)cn2)n1", "human SCD5 (Homo sapiens)", 1.00],
  ["N#Cc1cc(C(=O)Nc2ccc(Cc3ccc(F)c(F)c3)cn2)ccn1", "human SCD5 (Homo sapiens)", 2.76],
  ["CN1N=C(C(=O)Nc2ccc(COc3ccc(F)c(Cl)c3)cn2)CCC1=O", "human SCD5 (Homo sapiens)", 2.54],
  ["O=C(Nc1ccc(Cc2ccc(F)c(Cl)c2)cn1)c1ccc(CO)nc1", "human SCD5 (Homo sapiens)", 1.00],
  ["Cn1ncc2cc(-c3ccc(Cc4cccc(F)c4)cn3)ccc21", "human SCD5 (Homo sapiens)", 3.88],
  ["Cn1cc(NC(=O)c2ccc(Cc3cccc(Cl)c3)cn2)ccc1=O", "human SCD5 (Homo sapiens)", 1.00],
  ["CN1N=C(C(=O)Nc2ccc(Cc3cccc(F)c3)cc2)CCC1=O", "human SCD5 (Homo sapiens)", 3.71],
  ["O=C(Nc1ccc(Cc2ccc(F)c(F)c2)cn1)c1ccc(Cl)nn1", "human SCD5 (Homo sapiens)", 2.58],
  ["O=C(Nc1ccc(Cc2cccc(F)c2)cn1)c1ccc2nccn2c1", "human SCD5 (Homo sapiens)", 4.16],
  ["Cn1cc(C(=O)Nc2nc(C#N)c(Cc3cccc(F)c3)s2)ccc1=O", "human SCD5 (Homo sapiens)", 3.13]
]}

###

Examples of compounds with documented pIC50 follow.
Biological target: human SCD1 (Homo sapiens, UniProt O00767)
Construct: expressed in transfected cells; host or cells: yeast strain with OLE1 deleted, plasmid-borne human SCD1 (selected in SD-Ura)
Sequence (O00767 1-359): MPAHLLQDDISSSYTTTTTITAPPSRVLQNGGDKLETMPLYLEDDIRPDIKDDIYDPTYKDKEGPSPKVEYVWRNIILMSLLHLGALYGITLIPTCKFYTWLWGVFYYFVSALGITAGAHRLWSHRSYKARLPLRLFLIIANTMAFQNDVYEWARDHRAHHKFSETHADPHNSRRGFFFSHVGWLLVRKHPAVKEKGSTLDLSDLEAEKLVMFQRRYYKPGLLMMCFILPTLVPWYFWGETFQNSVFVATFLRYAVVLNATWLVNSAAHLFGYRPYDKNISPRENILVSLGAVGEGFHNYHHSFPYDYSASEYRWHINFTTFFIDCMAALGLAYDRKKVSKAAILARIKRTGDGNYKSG
Test: Growth inhibition of yeast strain expressing human SCD1 as sole desaturase (OLE1 deleted), OD600 readout
Format: cell-based
Settings: yeast strain expressing human SCD1 as sole desaturase; growth (OD600) after 40 h at 30° C.; read-out: SCD1 IC50
pIC50: −log10 of the molar value.
value-kind: pIC50

{"columns": ["compound", "system", "value-kind", "data-value"],
 "data": [
  ["Cn1ccc(NC(=O)c2ccc(Cc3cccc(F)c3)cn2)n1 [Compound 95]", "human SCD1 (Homo sapiens, UniProt O00767)", "pIC50", "< 4.35"],
  ["CN1N=C(C(=O)Nc2ccc(Cc3ccc(Cl)s3)cn2)CCC1=O [Example 21]", "human SCD1 (Homo sapiens, UniProt O00767)", "pIC50", "< 4.35"],
  ["COc1ccc(Cn2c(C(=O)Nc3ccc(Cc4cccc(F)c4)cn3)cc(=O)n2C)cc1 [Compound 455]", "human SCD1 (Homo sapiens, UniProt O00767)", "pIC50", "< 4.35"],
  ["CN1N=C(C(=O)Nc2cnc(Cc3cccc(Cl)c3)nc2)CCC1=O [Compound 443]", "human SCD1 (Homo sapiens, UniProt O00767)", "pIC50", "< 4.35"],
  ["O=C(O)c1cnc(C(=O)Nc2ccc(Cc3ccc(F)c(F)c3)cn2)cn1 [Compound 554]", "human SCD1 (Homo sapiens, UniProt O00767)", "pIC50", 5.49],
  ["Cn1cc(C(=O)Nc2ccc(Cc3cc(C#N)ccc3F)cn2)ccc1=O [Compound 648]", "human SCD1 (Homo sapiens, UniProt O00767)", "pIC50", "< 4.35"],
  ["CN1N=C(C(=O)Nc2ncc(Cc3cccc(F)c3)s2)CCC1=O [Compound 220]", "human SCD1 (Homo sapiens, UniProt O00767)", "pIC50", 6.18],
  ["COc1cc(Cc2ccc(NC(=O)c3cnc(C#N)cn3)nc2)ccc1F [Compound 638]", "human SCD1 (Homo sapiens, UniProt O00767)", "pIC50", 5.49],
  ["Cn1nc(C(=O)Nc2ccc(Cc3cccc(F)c3F)cn2)ccc1=O [Compound 551]", "human SCD1 (Homo sapiens, UniProt O00767)", "pIC50", "< 4.35"]
]}
